tested on: morningglory; assay: Test B pre/postemergence morningglory; format: in vivo, Ipomoea hederacea; details: Rate 500 g/ha, Postemergence; scale 0 to 10
Some compounds, each annotated with its measured Morningglory plant response rating.
Answer as a number with no unit attached.

Below: 5 compounds and their reported Morningglory plant response rating.
smiles.code	Morningglory plant response rating
CC(C)N(Cc1ccccc1)C(=O)n1oc(=O)n(C(C)C)c1=O	4
CC(=O)OCCCCn1c(=O)on(C(=O)N(c2ccc(F)cc2)C(C)C)c1=O	6
Cc1nsc(C)c1-n1c(=O)on(C(=O)N(c2ccc(Cl)cc2)C(C)C)c1=O	4
CC(C)N(C(=O)n1oc(=O)n([C@@H](C)c2ccccc2)c1=O)c1ccc(F)cc1	8
Cc1nsc(C)c1-n1c(=O)on(C(=O)N(c2ccc(F)cc2)C(C)C)c1=O	1

Next:
The compound CC(C)N(C(=O)n1oc(=O)n([C@@H](C)c2ccccc2)c1=O)c1ccccc1 showed Morningglory plant response rating equal to 10
